Molecular target: Human immunodeficiency virus type 1 reverse transcriptase (Human immunodeficiency virus 1, UniProt Q72547, K103N/L100I)
Assay: Inhibition of HIV1 reverse transcriptase L100I/K103N mutant polymerase activity using [3H]TTP and poly(rA)-oligo(dT)16 substrate incubated for 20 mins by liquid scintillation spectrometry
endpoint label: IC50

[[record]]
smiles_code = "NS(=O)(=O)c1ccc(-c2ccc(Cc3ccc4c(c3)CC(=O)N(O)C4=O)cc2)cc1"
endpoint_label = "IC50"
meas_value = "0.2 µM"


----------
Assay: Toxicity against human HeLa P4/R5 cells
Type: cell-based
Settings: p4/r5
CC50 listing for selected compounds.
endpoint label: CC50

[[record]]
smiles_code = "O=C1Cc2cc(Cc3ccc(C(F)(F)F)cc3)ccc2C(=O)N1O"
endpoint_label = "CC50"
meas_value = "50 µM"

[[record]]
smiles_code = "O=C1Cc2cc(Cc3ccc(-c4ccccc4)cc3)ccc2C(=O)N1O"
endpoint_label = "CC50"
meas_value = "50 µM"

